Test system: MDA-MB-468
Experiment: phospho-S6 immunofluorescence (DAPI-normalised), per-plate z-score; higher = higher phospho-S6 signal (less pathway suppression)
Settings: co-treatment: lapatinib 1 uM; 24 h
Where a name gives a salt, the structure may show the parent alone.
Entry flag: satisfied if phospho-S6 immunofluorescence (z-score) reaches -4; not satisfied if it does not.

molecule	target.or.system	class.label
CC(C)C[C@H](NC(=O)[C@H](Cc1ccccc1)NC(=O)CNC(=O)[C@@H](C)NC(=O)[C@@H](N)Cc1ccc(O)cc1)C(=O)O [[D-Ala2]leucine-enkephalin] (compound 10 µM)	MDA-MB-468	satisfied
COc1ccc2c(c1)[C@]13CCCC[C@@H]1[C@H](C2)N(C)CC3 [Dextromethorphan (hydrobromide hydrate)] (compound 10 µM)	MDA-MB-468	satisfied
O=c1[nH]c2ccccc2n1CCCN1CCC(n2c(=O)[nH]c3cc(Cl)ccc32)CC1 [Domperidone] (compound 10 µM)	MDA-MB-468	satisfied
CC(C)C[C@H]1C(=O)N2CCC[C@H]2[C@]2(O)O[C@](NC(=O)[C@@H]3C=C4c5cccc6[nH]c(Br)c(c56)C[C@H]4N(C)C3)(C(C)C)C(=O)N12 [Bromocriptine (mesylate)] (compound 10 µM)	MDA-MB-468	satisfied
Cc1cccc(Cc2c[nH]cn2)c1C [Detomidine (hydrochloride)] (compound 10 µM)	MDA-MB-468	satisfied
Oc1ccc2c3c1O[C@H]1c4[nH]c5ccccc5c4C[C@@]4(O)[C@@H](C2)N(CC2CC2)CC[C@]314 [Naltrindole (hydrochloride)] (compound 10 µM)	MDA-MB-468	not satisfied

Hello, the source for this data is the supplement of paper PMC7411640, in case you need it.
